Assay: yeast display, Sf9 membrane polyspecificity reagent, FACS + sequencing; frameworks hold sequencing errors
observation type: polyreactivity (PSR sort gate)

INSERT INTO results (sequence_string, observed_measurement) VALUES
  ('QVQLVESGGGLVQAGGSLRLSCAASGSTFKIYARGWYRQAPGKERELVARITGRGGSTYYADSVKGRFTISRDNAKNTVYLQMNSLKPEDTAVYYCAARVYTYYYDLHKRYYWGQGTQVTVSS', 'high polyreactivity'),
  ('QVQLVESGGGLVQAGGSLRLSCAASGRTFKKYAMGWYRQAPGKERELVAAITSRVGSTSYADSVKGRFTISRDNAKNTVYLQMNSLKPEDTAVYYCAARYSVGTGYGYWGQGTQVTVSS', 'high polyreactivity');

----------
Assay: yeast display, Sf9 membrane polyspecificity reagent, FACS + sequencing; frameworks hold sequencing errors
observation type: polyreactivity (PSR sort gate)

INSERT INTO assay_data (sequence_string, observation_type, observed_measurement) VALUES
  ('QVQLQESGGGLVQACGSQRLSCAASGSICEGQDMGWYRRAPGKEREFVAGIAPGATTYYADSVKGRFTISRDNAKNTVYLQMNSLKPEDTAVYYCAARSVTETDHDSWGQGTQVTVSS', 'polyreactivity (PSR sort gate)', 'low polyreactivity'),
  ('QVQIVESGGGLVQAGGSLRLSCADSGFISSHYAMGWYRQAPGKERELVAAISTNGGSTYYADSVKGRFTISRDNAKNTVYLQMNSLKPEDTSVYYCAAEFAVSFYWSWLGQDYNYWGQGTQVTVSS', 'polyreactivity (PSR sort gate)', 'high polyreactivity'),
  ('QVQLVESGGGLVQAGRILRLSCAASGYIFRRYAMGWYRQAPGKERELVAVISSRGGSTYYADSVKGRFTISRDNATKTVYLQMNSLKPEDTAVYYCAARSGSRATFLSDYWGQGNQVTVSS', 'polyreactivity (PSR sort gate)', 'high polyreactivity'),
  ('QVQLVESGGGLVQAGGSIRLSCAASGSIVVSYAMGWYRQAPGKERELVAAITVSGGSTYYADSVKGRFTISRDNAKNTVYLQMNSLKPEDTAVYYCAADSWDDWVVEFYYWGQGTQVNVSS', 'polyreactivity (PSR sort gate)', 'low polyreactivity'),
  ('QVQLVETGGGLVQAGGSLRLSCAASGSTFSDYVMGWYRQAPGKERELVAAITWSGGSTYYADSVKGRFTISRDNAKNTVYLQMNSLKPEDTAVYYCAADPTASGHFLGQVDYWGQGTQVTVSS', 'polyreactivity (PSR sort gate)', 'high polyreactivity'),
  ('QVQLVESGGGLVQAGGSLRLSCAASGFTFDVYALGWYRQAPGKERELVAAISARGGSTCYADSVKGRFTISRDNAKNTVYLQMHSLKPEDTAVYYCNTYPKKKRPNEYDYWGQGTQVTVSS', 'polyreactivity (PSR sort gate)', 'high polyreactivity'),
  ('QVQLVESGGGLVQAGGSLRLSCAASGGIFSENALGWYRQAPGKERELVAVITTSGGSTYYADSVKGRFTISRDNAKNTVYLQMNSLKPEDTAVYYCAADVLSWEYDYWGQGTQVTVSS', 'polyreactivity (PSR sort gate)', 'low polyreactivity'),
  ('QVQLVESGGGLVQAGGSLRLSCAASGSIFAGNAMGWYRQAPGKERELVAAISWRGGSTYYADSVKGRFTISRDNAKNTVYLQMNSLKPEDTAVYYCAATWYDRRTFFYKYDYWGQGTQVTVSS', 'polyreactivity (PSR sort gate)', 'low polyreactivity'),
  ('QVQLVESGGGLVQAGGSLRLSCAASGSIFFYYTMGWYRQAPGKERELVAAITWSGGSTYYADSVKGRFTISRDNAKNTVYLQMNSLKPEDTAVYYCAAGTRLYYYRLNYWGQGTQVTVSS', 'polyreactivity (PSR sort gate)', 'high polyreactivity'),
  ('QVQLVESGGGLVQAGGSLRLSCAASGRTFRFDAMGWYRQAPGKEREFVAAISRSVGSTYYADSVKGRFTISRDNAKTTVYLQMNSLKPEDTAVYYCNGDYRSRYVEYDYWGQGTQVTVSS', 'polyreactivity (PSR sort gate)', 'high polyreactivity'),
  ('QDQLVESGGGLVQAGGSLRLSCAASGSIFAGYVMGWYRQAPGKERELVASISSGTGTFYADSVKGRFTISRDNAKNTVYLQMNSLKPEDTAVYYCAAESYRTVQFIRSRWRYTYDYWGQGTQVTVSS', 'polyreactivity (PSR sort gate)', 'low polyreactivity'),
  ('QVQLVESGGGLVQAGGSLRLSCAASGSIFDYNAMGWYRQAPGKERELVAAISSGGSTYYADSVKGRFTISRDNAKNTVYLQMNSLKPEDTAVYYCAVKFWYHIYDYWGQGTQVTVSS', 'polyreactivity (PSR sort gate)', 'low polyreactivity'),
  ('QVQLVESGGGLVQAGGSLRLSCAASGITIKRYPMGWYRQAPGKEREFVATSSQSGTSTYYADSVKGRFTISRDNAKYTVYLQLNSLKPEDTAVYYCAADYIGYWYGYYSWGQGTQVTVSS', 'polyreactivity (PSR sort gate)', 'low polyreactivity'),
  ('QVQLVESGGGLVQAGGSLRLSCAASGRIITGYAMGWYRQAPGKERELVAAISRGGSTNYADSVKGRFTISRDNAKNTVYLQMNSLKPEDTAVYYCAAGVHWDRGDYWGQGTQVTVSS', 'polyreactivity (PSR sort gate)', 'low polyreactivity'),
  ('QVQLVESGGCLVPAGGSLRLSCAASGSIFSYYAMGWYRQAPGKERELVAAITVRGGSTYYADSVKGRFTISRDNAKNTVYLQMNSLKPEDTAVYYCAADWLDESFSYGPYYYWGQGTQVTVSS', 'polyreactivity (PSR sort gate)', 'low polyreactivity'),
  ('QVHLVESGGGLVQAGGILRLSCPASGQTFWAYAMGWYRQAPGKERELVAAISWRGGSTYYADSVKGRFTISRDNAKNTVYLQMNSLKPEDTAVYYCAAQYLYYGGRRYDFWGQGTQVTVSS', 'polyreactivity (PSR sort gate)', 'high polyreactivity'),
  ('QLQLVESGGGLVQAGGSHRLSCAASGSIFTGYAMGRSRQAPGKQREFVAAISWSGSSTYYADSVKGRFTISRDNGKNTVYVQMNSLKPEDTAVYYCNAVKGWWGYYSSVDFDYWGQGTQVTVSS', 'polyreactivity (PSR sort gate)', 'low polyreactivity'),
  ('QVQLVESGGGLVQAGGSLRLSCAASGRIFEHYPMGWYRPAPGKERELVAAISRSGGRTYYADSVKGRFTISRDNAKNTVTLQMNSVKPEDTEVDYCAAVGVYWYVYPHEYDYWGQGSQVTVSS', 'polyreactivity (PSR sort gate)', 'high polyreactivity'),
  ('QVQLVESGGGLVQAGGSHRLSCAASGSTFDTYPMGWYRQEPGKERELVAAISRSGTSTYYADSVKGRFTISRDNAKNTVYLQMKSLKPEDTAVYYCAAYGPRVNGEIGREYYYWGQGTQVTVSS', 'polyreactivity (PSR sort gate)', 'low polyreactivity'),
  ('QVQLVESGGGVVQAGGSLRLSCAASGSTFDVYAMGWYRQAPGKERELVAAITSGGTTNYADSVKGRFTNSRDNAKNTVYLQMNSLKPEDTAVYYCAADSPWGGGYFVLYNYWGQGTQVTVSS', 'polyreactivity (PSR sort gate)', 'low polyreactivity'),
  ('QVQLVESGGGLVQAGGSLRLSCAATGTTFGYYTMGWYRQAPGKERELDAAISWSGSSTYYADSVKGRFTISRDTAKNTVYLQMNSLKPEDTAVYYCNARGGARAWYFAYKYWGQGTQVTVSS', 'polyreactivity (PSR sort gate)', 'high polyreactivity');
